System: LoVo-Dox
Assay: SRB colorimetric cell growth inhibition assay, LoVo-Dox (MDR)
Format: cell-based
Conditions: Homo sapiens; LOVO-DOX; TGI=total growth inhibition (cytostatic effect); read-out: TGI LOVO-DOX
Measure: IC (TGI) (µM)
Answer in µM, number only, no unit symbol.

Examples from the recorded data:
Record COc1cc(-c2c3n(c4c(=O)oc5cc(OC(=O)[C@H](NC(=O)OC(C)(C)C)C(C)C)c(OC)cc5c24)CCc2cc(OC(=O)[C@H](NC(=O)OC(C)(C)C)C(C)C)c(OC)cc2-3)ccc1OC(=O)[C@H](NC(=O)OC(C)(C)C)C(C)C [Compound 34] , field IC (TGI): 9.1

Record COc1cc(-c2c3c4cc(OC)c(OC(=O)[C@@H](N)CCCCNC(=O)OCc5ccccc5)cc4oc(=O)c3n3ccc4c(OC(=O)[C@@H](N)CCCCNC(=O)OCc5ccccc5)c(OC)c(OC)cc4c23)ccc1OC(=O)[C@@H](N)CCCCNC(=O)OCc1ccccc1 [Compound 44] , field IC (TGI): 2.51

Record COc1cc(-c2c3c4cc(OC)c(OC(=O)[C@@H](NC(=O)OC(C)(C)C)C(C)C)cc4oc(=O)c3n3ccc4cc(OC(=O)[C@@H](NC(=O)OC(C)(C)C)C(C)C)c(OC)cc4c23)ccc1OC(=O)[C@@H](NC(=O)OC(C)(C)C)C(C)C [Compound 38] , field IC (TGI): 9.11

Record COc1cc(-c2c3n(c4c(=O)oc5cc(OC(=O)[C@H](CO)NC(=O)OC(C)(C)C)c(OC)cc5c24)CCc2c-3cc(OC)c(OC)c2OC(=O)[C@H](CO)NC(=O)OC(C)(C)C)ccc1OC(=O)[C@H](CO)NC(=O)OC(C)(C)C [Compound 60] , field IC (TGI): 9.15

Record COc1cc(-c2c3n(c4c(=O)oc5cc(OC(=O)[C@H](Cc6c[nH]c7ccccc67)NC(=O)OC(C)(C)C)c(OC)cc5c24)CCc2cc(OC(=O)[C@H](Cc4c[nH]c5ccccc45)NC(=O)OC(C)(C)C)c(OC)cc2-3)ccc1OC(=O)[C@H](Cc1c[nH]c2ccccc12)NC(=O)OC(C)(C)C [Compound 29] , field IC (TGI): 7.35

// moving on: another record for IC (TGI)
Record COc1cc(-c2c3n(c4c(=O)oc5cc(OC(=O)[C@H](C)NC(=O)OC(C)(C)C)c(OC)cc5c24)CCc2c-3cc(OC)c(OC)c2OC(=O)[C@H](C)NC(=O)OC(C)(C)C)ccc1OC(=O)[C@H](C)NC(=O)OC(C)(C)C [Compound 46] , field IC (TGI): 9.57
